Items are presented alongside their recorded apparent Kd.
Tested on: MS2 coat protein
measurement description: apparent Kd, MS2 coat protein; higher = weaker binding; RNA-MaP array; tryptophan 2.4 mM where present
experimental parameters: designed as: ON switch for tryptophan; no ligand

# record sequence, apparent Kd (µM)
data = [
    ("CUACAUUUGUAGAAACCGGUCAACAAUAAUCGAGGACCGGUACGGCCGCCACUCGAUGUGAAAUCACAUGAGGAUCACCCAUGUA", 0.018),
    ("AUACAUGAGGAUCACCCAUGUGAUGGCCGGCGAGGACCGGUACGGCCGCCACUCGUGAUCCGUCCUGAGAGCAAAGCCCUCAGCA", 0.124),
    ("AUUAAGGAUAUGUAGACGGCGGAGAAGAGACGAGGACCGGUACGGCCGCCACUCGUGUUAGUUAACAUGAGGAUCACCCAUGUAA", 0.0497),
    ("AGAGCAUUGACGGCCGCCACUCAUGUCACAUGAGGAUCACCCAUGUGAUGGGUGAUAGCCCGGUCGAGGACCGGGUCAAUGCUCA", 0.0172),
    ("AUUCAUGGAAACAUGACAUAGGGAUCCGGUCGAGGACCGGUACGGCCGCCACUCGUUUGGAGGCACAUGAGGAUCACCCAUGUUA", 0.082),
    ("GAUAUAUAGGCGGCCGCCACUGAUUUUCAUAUAUAUAUAACAUGAGGAUCACCCAUGUAGAUAUACAGGACCGGGCCUAUAUAUU", 0.0145),
    ("UGUACCAUGUCGGCCGCCACUCAUGAUAAACAUGAGGAUCACCCAUGUGGCGUCAAAGACGCUAUGAGGACCGGGACAUGGUACU", 0.0132),
]
